# System: HRgpA-6H (Porphyromonas gingivalis) (UniProt P28784)
# Experiment: ELISA on coated HRgpA-6H
Below is a list of entries, each paired with its recorded Ratio OD(Variant)/OD(WT) value.
Answer field: number only, no words.

KB001 mouse Fab FASEBA VH K64Y (Fab, V domains shown) VH: EVQLKQSGPGLVAPSQSLSITCTVSGFSLSIYSVHWVRQPPGKGLEWLGMIWGGGSSDYNSALYSRLSISKDNSKSQVFLKMNSLQTDDTAMYYCARNGNFYAMDYWGQGTSVTVSS VL: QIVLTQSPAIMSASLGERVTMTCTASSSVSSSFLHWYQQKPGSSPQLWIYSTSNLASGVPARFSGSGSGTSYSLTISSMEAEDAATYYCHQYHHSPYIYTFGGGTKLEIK :: 0.923

Value of measured Ratio OD(Variant)/OD(WT) for the entry KB001 mouse Fab FASEBA VH L29P (Fab, V domains shown) VH: EVQLKQSGPGLVAPSQSLSITCTVSGFSPSIYSVHWVRQPPGKGLEWLGMIWGGGSSDYNSALKSRLSISKDNSKSQVFLKMNSLQTDDTAMYYCARNGNFYAMDYWGQGTSVTVSS VL: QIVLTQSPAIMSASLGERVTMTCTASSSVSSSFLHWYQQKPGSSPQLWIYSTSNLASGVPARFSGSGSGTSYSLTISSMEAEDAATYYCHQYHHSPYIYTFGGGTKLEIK : 0.867
